src = PubChem BioAssay

- ASSAYED TARGET: L-lactate dehydrogenase (Plasmodium falciparum (isolate CDC / Honduras))
- MEASUREMENT NOTES: PfLDH activity inhibition – cell lysate, 3D7 strain, counter-screen for P. falciparum growth inhibition project (AID 2304);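 also: 0% = vehicle and 100% = reference inhibitor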
- MEASUREMENT CONDITIONS: P. falciparum 3D7 crude extract, LDH APAD/NBT absorbance; at 2 µM; active compounds read high
READOUT LABEL: inhibition (%)
Give bare numbers, in %.

COMPOUND	READOUT LABEL	NUMERIC RESULT
COc1ccc(C(=O)N2CCN(c3ccc([N+](=O)[O-])c(NC4CC4)c3)CC2)cc1Br	inhibition	5
O=C(NCc1ccccc1)Nc1cccc(-c2cccc(-c3nc4ccc(C(F)(F)F)cc4[nH]3)c2)c1	inhibition	0
O=C(/C=C/c1ccc(Cl)c(Cl)c1)NCCCCCN1CCCC(C(=O)Nc2ccc(Cl)c(Cl)c2)C1 (centres undefined)	inhibition	-1
O=C(CCCCCNC(=O)c1ccc(O)c(-c2ccc(Cl)c(Cl)c2)c1)NC1CCCCCC1	inhibition	2
CCOc1cc(C(=O)NCCN2CCCCC2)ccc1-c1nc2ccc(Cl)cc2[nH]1	inhibition	-3

For each of the items listed, what is its inhibition?
1. CNC(=O)C(NC(=O)c1ccccc1C(=O)OC)c1ccccc1 (centres undefined)
2. CC(C)c1cc(C(=O)N[C@@H](Cc2ccccc2)[C@H](O)CNC2CCCCC2)cc(N2CCCC2=O)c1
3. O=C(NC1CCN(Cc2ccsc2)CC1)c1ccc(-c2cccc(C(F)(F)F)c2)s1
4. CC1(C)N=C(N)N=C(N)N1OCc1cccc(Cl)c1Cl

1: 3; 2: 5; 3: -2; 4: -1

Give inhibition for all compounds that follow.
1. COc1ccc2nc3cc(Cl)ccc3c(NCCO)c2c1
2. CC(C)(C)CNc1noc(-c2sccc2Br)n1

1: 9; 2: -7

// for each compound in input: emit inhibition
1. c1cc(CNCCc2ccncc2)cc(-c2cccc(-c3nc4ccccc4[nH]3)c2)c1
2. Cc1cc(NCC(c2ccccc2)c2ccccc2)nc(NCc2ccc(C(F)(F)F)cc2)n1
3. CNc1nc(Nc2ccccc2C)nc2ccccc12
4. COC(=O)C(Cc1ccccc1)NC(=O)NC1CCN(c2ccnc(Nc3ccc(F)cc3)n2)C1 (centres undefined)
5. CS(=O)(=O)NCCCNCc1ccc(-c2cccc(-c3nc4ccc(F)cc4[nH]3)c2)cc1
6. Nc1nc(N)c2c(ccc3c2ccn3CC2CC2)n1
7. O=C(NCc1ccccc1)NC(CCCN1CCC(Oc2cccc(Cl)c2)CC1)c1ccc(Cl)c(Cl)c1 (centres undefined)

1. 1
2. 2
3. -1
4. -3
5. 5
6. -4
7. 4

Please go through the list and note inhibition for each compound.
1. Nc1nc2c(ncn2COC2COP(=O)(O)OC2)c(=O)[nH]1 (centres undefined)
2. CCC(C)(C)c1ccc(Oc2ccc(NC(=O)Nc3ccc(Cl)c(Cl)c3)cc2)cc1
3. COc1ccccc1N1CCN(Cc2c(O)ccc3cc(Br)ccc23)CC1

1. 7
2. -1
3. 2

Hey, can you go through the list below and give me inhibition for every item?
1. COc1ccc2nc(C)cc(NCc3ccc4ccccc4c3)c2c1
2. CC(=O)c1ccc2cc(C(=O)NC3CCC(CCN4CCc5ccc(-c6noc(C)n6)cc5CC4)CC3)[nH]c2c1 (centres undefined)
3. COc1cc2nc(NCc3cccc(CNC(=O)c4ccc(-c5ccc(C(C)=O)cc5)cc4)c3)nc(N)c2cc1OC
4. CCCCCN(C(=O)Nc1cc(C(F)(F)F)cc(C(F)(F)F)c1)C(C)c1nc2ccccc2c(=O)n1CC (centres undefined)
5. CN1CCN(CC(=O)Nc2ccc(-c3ccc(-c4nc5ccc(C(F)(F)F)cc5[nH]4)cc3)cc2)CC1

1. -1
2. 0
3. -2
4. 3
5. -3

Dear colleague, could you send me inhibition for each of the items below? Thanks.
1. COCCOc1cc(C)c(C2CCN(CCCCNC(=O)c3ccc(NC(=O)c4ccc(Cl)cc4)cc3)CC2)cc1C
2. Cc1cc(N[C@@H](Cc2ccccc2)C(=O)NC2CCCC2)nc(NCC2CCCCC2)n1
3. C[C@H](NC(=O)c1cc(-c2ccc(C(C)(C)C)cc2)no1)C(=O)O (tested in a mixture with another compound)
4. CN1CCCC(CN2CCN(Cc3cccc(-c4csc(-c5nc6ccccc6[nH]5)c4)c3)CC2)C1 (centres undefined)

[-2, 4, -4, -4]

Here are 6 compounds. What values of inhibition were reported for them?
1. CC1(C)N=C(N)N=C(N)N1CCc1ccccc1
2. CC(Cc1ccc(OCCN2CCN(c3cccc(Cl)c3)CC2)cc1)NCC(O)c1cccc(C(F)(F)F)c1 (centres undefined)
3. c1cncc(CNc2ncc(-c3ccsc3)c(-c3nccs3)n2)c1
4. COC1CCC(C(=O)Nc2ccc(-c3cccc(-c4nc5ccc(C(F)(F)F)cc5[nH]4)c3)cc2)CC1 (centres undefined)
5. Cc1ccc(-n2ncc(C(=O)Nc3cc(Cl)cc(Cl)c3)c2C2CCNCC2)cc1C
6. CC(=O)Nc1ccc(Nc2c3ccccc3nc3ccccc23)cc1

1. -4
2. -1
3. 2
4. -2
5. -7
6. 3

For every record below, what is its inhibition?
1. CC(C)(C)c1ccc(CN2CCC(CNC(=O)c3cc(-c4ccccc4C(F)(F)F)cs3)C2)cc1 (centres undefined)
2. CC(=O)Nc1nc(C(=O)Nc2cccc(-c3ccc4c(cnn4CC4CC4)c3)c2)cs1
3. O=C(Nc1cccc(-c2cccc(-c3nc4ccc(C(F)(F)F)cc4[nH]3)c2)c1)c1ccc(=O)[nH]n1

1. -3
2. 2
3. 0

###

- MEASUREMENT NOTES: human hepatoma cell viability loss – ATP luminescence, cytotoxicity control for P. falciparum antimalarial project, primary screen (AID 2303);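 also: 0% = DMSO wells and 100% = digitonin-killed cells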
- MEASUREMENT CONDITIONS: HepG2 viability, 24-48 h, at 10 µM, active compounds read high
Could you please report measured inhibition for the items listed next?
Answers are plain numbers, in %.

Consider the following illustrative entries.
COMPOUND	UNIT INFO	inhibition
COc1cccc2c(Nc3ccccc3C)nc(Nc3ccccc3C)nc12	%	9
COc1ccc2nccc([C@@H](O)CN3CC[C@H](NCc4ccc5c(n4)NC(=O)CS5)[C@H](F)C3)c2c1	%	5
O=C(Nc1ccc(Cl)c(C(F)(F)F)c1)N[C@H]1CCN(CCCCCNC(=O)[C@@H]2C[C@H]2c2ccc(Cl)c(Cl)c2)C1	%	39
Cc1nn(-c2ccc(Cl)cc2)c2[nH]c(CN3CCN(c4cccc(Cl)c4)CC3)cc(=O)c12	%	0
COC(=O)c1ccc(OCC(O)CO)cc1O (centres undefined)	%	4
CN(C)c1ccc(NC(=O)Nc2ccnc3ccc(Br)cc23)cc1	%	-5
CCC(Cc1ccccc1)c1cc(O)c(Cc2ccc(-c3ccccc3)cc2)c(=O)o1 (centres undefined)	%	3
Cc1ccc(C2(CN3CCC(NC(=O)c4[nH]ncc4Cl)CC3)CCCCC2)cc1	%	-11

Value lookup for inhibition; key = NCCCNc1nccc(N2CCc3ncnc(Nc4ccc(OCc5cccc(F)c5)c(Cl)c4)c3C2)n1
18

###

- MEASUREMENT NOTES: human hepatoma cell viability loss – ATP luminescence, cytotoxicity control for P. falciparum antimalarial project, primary screen (AID 2303);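 also: 0% = DMSO wells and 100% = digitonin-killed cells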
- MEASUREMENT CONDITIONS: HepG2 viability, 24-48 h, at 10 µM, active compounds read high
READOUT LABEL: inhibition (%)
Answers are plain numbers, in %.

MOLECULE	READOUT LABEL	NUMERIC RESULT
COc1ccc(CNCc2ccccc2)cc1-c1ccc(S(=O)(=O)NCCN2CCCC2)c(F)c1	inhibition	29
CN1CCN(CC(=O)Nc2cccc(-c3cccc(-c4nc5ccc(F)cc5[nH]4)c3)c2)CC1	inhibition	16
CCCn1c(SCC(=O)Nc2cc(C(F)(F)F)ccc2Cl)n[nH]c1=O	inhibition	-6
Nc1c(Cl)cc(C(O)CNCCCCCOCCc2ccc3occc3c2)cc1Cl (stereo not given)	inhibition	-2
CC(=O)Nc1ccc(C(=O)NC2CCN(c3ccnc4cc(Cl)ccc34)C2)cc1 (stereo not given)	inhibition	1
CCN(CC)CCNC(=O)c1ccc(NC(=O)c2cc3c(C)nn(-c4ccc(Cl)cc4)c3s2)cc1	inhibition	24

List inhibition for every entry below, keeping the order given.
1. COc1ccccc1N(C)CCNc1cc(C)nc(Nc2ccccc2)n1
2. COc1cc(F)c2ncc(C#N)c(CCN3CCC(NCc4ccc5c(c4)OCCO5)CC3)c2c1
3. COc1ccc(CCc2ccc(-c3c(C)[nH]c(C)c(Cl)c3=O)cc2)cc1
4. COc1ccc(OCCn2cc(C(=O)c3ccco3)c3ccccc32)cc1
5. CCCCOc1c(CNCCCCCCNCc2ccc3ccccc3c2OCCCC)ccc2ccccc12
6. c1cncc(CCNCc2ccc(-c3ccc(CNC4Cc5ccccc5C4)cc3)cc2)c1
7. O=C(Nc1cccc(CN2CCCN(Cc3ccc(O)cc3)CC2)c1)c1ccc(Cl)c(Cl)c1

10
5
-3
17
99
32
22
